Data provenance: patent US20250221410A1

# Test system: POAAN: Poa annua
# procedure text: Pre-emergence herbicide efficacy at 1280 g/ha, POAAN
# Assay type: in vivo
# condition summary: visual scoring after about 3 weeks vs untreated controls
measurement label: Pre-emergence efficacy against POAAN (%)
Only the number, expressed in %, is required.

The observed Pre-emergence efficacy against POAAN for Fc1cc(Cl)cnc1Oc1ccccc1Cc1ccc(Cl)cn1 [Example 1-101] when tested with POAAN: Poa annua stands at 100

The observed Pre-emergence efficacy against POAAN for N#CC(c1ncc(F)cn1)c1ccccc1CCCC(F)(F)F (stereo not drawn) [Example 1-72] when tested with POAAN: Poa annua stands at 90

The observed Pre-emergence efficacy against POAAN for Fc1cnc(Cc2ccccc2-n2cc(C(F)(F)F)cn2)nc1 [Example 1-129] when tested with POAAN: Poa annua stands at 90

The observed Pre-emergence efficacy against POAAN for Fc1cc(Cl)cnc1Oc1ccccc1Cc1ncccn1 [Example 1-77] when tested with POAAN: Poa annua stands at 90

The observed Pre-emergence efficacy against POAAN for FC(F)(F)c1cnn(-c2ccccc2Cc2ncc(Cl)cn2)c1 [Example 1-42] when tested with POAAN: Poa annua stands at 90

The observed Pre-emergence efficacy against POAAN for N#CC(c1ncc(F)cn1)c1ccccc1-c1ccc(F)c(F)c1 (stereo not drawn) [Example 1-79] when tested with POAAN: Poa annua stands at 90

The observed Pre-emergence efficacy against POAAN for N#CC(c1ccc(Cl)cn1)c1ccccc1Cc1ccc(F)cc1 (stereo not drawn) [Example 1-82] when tested with POAAN: Poa annua stands at 90

The observed Pre-emergence efficacy against POAAN for Fc1ccc(Cc2ccccc2Oc2ncc(Cl)cn2)nc1 [Example 1-92] when tested with POAAN: Poa annua stands at 100

The observed Pre-emergence efficacy against POAAN for Fc1ccc(Sc2ccccc2Cc2ccc(Cl)cn2)cc1 [Example 1-105] when tested with POAAN: Poa annua stands at 100

The observed Pre-emergence efficacy against POAAN for Fc1ccc(Cc2ccccc2Oc2ncc(Cl)cc2F)nc1 [Example 1-103] when tested with POAAN: Poa annua stands at 90

The observed Pre-emergence efficacy against POAAN for N#Cc1cccc(Cc2ncc(F)cn2)c1-n1cc(C(F)(F)F)cn1 [Example 1-131] when tested with POAAN: Poa annua stands at 90

The observed Pre-emergence efficacy against POAAN for N#Cc1cccc(Oc2ncc(F)cn2)c1Cc1ncc(Cl)cn1 [Example 1-59] when tested with POAAN: Poa annua stands at 100
